System: MCF7-DOX
experimentNotes: Cytotoxicity against human MCF7/Dox cells assessed as reduction in cell viability after 48 hrs by MTT assay
Type: cell-based
Under this convention, met denotes IC50 strictly below 50 µM and not met denotes IC50 at or above 50 µM.

entrysmiles=COc1cc(OC)c(C(=O)/C=C/c2ccc(N(C)C)cc2)c(O)c1CC=C(C)C answerlabel="not met"
entrysmiles=COc1cc(OC)c(C(=O)/C=C/c2ccc(N3CCN(C(=O)OC(C)(C)C)CC3)cc2)c(O)c1CC=C(C)C answerlabel="not met"
entrysmiles=COc1cc(OC)c(C(=O)/C=C/c2cccc(N3CCN(C)CC3)c2)c(O)c1CC=C(C)C answerlabel="not met"
entrysmiles=COc1cc(OC)c(C(=O)/C=C/c2cccc(N3CCOCC3)c2)c(O)c1CC=C(C)C answerlabel="not met"
entrysmiles=COc1cc(OC)c(C(=O)/C=C/c2ccc(F)cc2)c(O)c1CC=C(C)C answerlabel="not met"

Regarding CCCCCc1c(OC)cc(OC)c(C(=O)/C=C/c2cccc(N3CCNCC3)c2)c1O , kindly confirm whether its IC50 is beneath 50 µM.
not met

Regarding COc1cc(OC)c(C(=O)/C=C/c2cc(OC)c(OC)c(OC)c2)c(O)c1CC=C(C)C , kindly confirm whether its IC50 is beneath 50 µM.
not met
